These measurements were taken from patent US20140120095A1.

target: human DLL4, full length, overexpressed on cells (human, UniProt Q9NR61 27-685); test: cell-based or functional assay
readoutName: IC50, DLL4 mediated reporter assay, +HSA (nM)
Write the number in nM without appending the unit.

What value of IC50, DLL4 mediated reporter assay, +HSA has been reported for the following binder? VEGFDLLBII013 (bispecific antibody, PEGylated at the Cys at position 15 of the 35 Gly-Ser linker, VEGFBII23B04 - 35GS(Cys15) - DLLBII129B05) EVQLVESGGGLVQTGDSLRLSCEVSGRTFSSYSMGWFRQAQGKEREFVVAISKGGYKYDSVSLEGRFTISKDNAKNTVYLQINSLKPEDTAVYYCASSRAYGSSRLRLADTYEYWGQGTQVTVSSGGGGSGGGGSGGGGCGGGGSGGGGSGGGGSGGGGSEVQLVESGGGLVQAGGSLRLSCAASGRTFSSYAMAWYRQAPGKEREYVAAIRWSGGTAYYADSVQGRFTISRDNAKNTVYLQMNSLKPEDTAVYYCANRAPDTRLAPYEYDHWGQGTQVTVSS 98.5

What value of IC50, DLL4 mediated reporter assay, +HSA has been reported for the following binder? DLLBII136C07 (VHH, not shown: small tags and cut ends) VHH: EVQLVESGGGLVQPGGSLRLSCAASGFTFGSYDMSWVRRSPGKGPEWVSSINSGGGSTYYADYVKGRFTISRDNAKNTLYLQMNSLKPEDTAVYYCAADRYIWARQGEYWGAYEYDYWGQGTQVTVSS 103

What value of IC50, DLL4 mediated reporter assay, +HSA has been reported for the following binder? VEGFDLLBII012 (bispecific antibody, PEGylated at the Cys at position 15 of the 35 Gly-Ser linker, VEGFBII23B04 - 35GS(Cys15) - DLLBII136C07) EVQLVESGGGLVQTGDSLRLSCEVSGRTFSSYSMGWFRQAQGKEREFVVAISKGGYKYDSVSLEGRFTISKDNAKNTVYLQINSLKPEDTAVYYCASSRAYGSSRLRLADTYEYWGQGTQVTVSSGGGGSGGGGSGGGGCGGGGSGGGGSGGGGSGGGGSEVQLVESGGGLVQPGGSLRLSCAASGFTFGSYDMSWVRRSPGKGPEWVSSINSGGGSTYYADYVKGRFTISRDNAKNTLYLQMNSLKPEDTAVYYCAADRYIWARQGEYWGAYEYDYWGQGTQVTVSS 582
